Value source: patent US20240158370A1

system-tested: CK1α (Homo sapiens, UniProt P48729+Q96SW2)
Construct: CSNK1A1-HiBit KI HEK293(LgBit) Cells; host or cells: HEK293(LgBit) knock-in cells
Sequence (P48729 whole entry): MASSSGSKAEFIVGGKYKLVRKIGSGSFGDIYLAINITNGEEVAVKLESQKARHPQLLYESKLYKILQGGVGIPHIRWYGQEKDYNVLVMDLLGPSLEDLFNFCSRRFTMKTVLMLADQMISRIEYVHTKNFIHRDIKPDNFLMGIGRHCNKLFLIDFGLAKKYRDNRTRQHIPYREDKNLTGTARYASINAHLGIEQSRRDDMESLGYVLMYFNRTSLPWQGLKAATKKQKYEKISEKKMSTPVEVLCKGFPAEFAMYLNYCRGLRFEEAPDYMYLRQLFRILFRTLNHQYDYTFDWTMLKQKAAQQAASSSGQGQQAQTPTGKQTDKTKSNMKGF
Sequence (Q96SW2 whole entry): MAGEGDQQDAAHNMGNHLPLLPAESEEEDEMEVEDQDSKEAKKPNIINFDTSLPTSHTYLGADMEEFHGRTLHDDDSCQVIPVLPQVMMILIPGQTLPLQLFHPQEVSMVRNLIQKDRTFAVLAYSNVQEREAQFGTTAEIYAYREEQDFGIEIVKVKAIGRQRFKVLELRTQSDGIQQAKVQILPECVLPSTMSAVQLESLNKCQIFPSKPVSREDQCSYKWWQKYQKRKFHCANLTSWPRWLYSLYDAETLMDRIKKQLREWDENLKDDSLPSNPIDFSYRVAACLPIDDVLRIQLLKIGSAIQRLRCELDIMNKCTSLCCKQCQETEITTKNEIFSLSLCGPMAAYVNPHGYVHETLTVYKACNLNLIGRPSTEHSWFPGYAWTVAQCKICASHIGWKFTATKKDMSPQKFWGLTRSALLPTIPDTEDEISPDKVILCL
Sequence (Q16531 whole entry partner): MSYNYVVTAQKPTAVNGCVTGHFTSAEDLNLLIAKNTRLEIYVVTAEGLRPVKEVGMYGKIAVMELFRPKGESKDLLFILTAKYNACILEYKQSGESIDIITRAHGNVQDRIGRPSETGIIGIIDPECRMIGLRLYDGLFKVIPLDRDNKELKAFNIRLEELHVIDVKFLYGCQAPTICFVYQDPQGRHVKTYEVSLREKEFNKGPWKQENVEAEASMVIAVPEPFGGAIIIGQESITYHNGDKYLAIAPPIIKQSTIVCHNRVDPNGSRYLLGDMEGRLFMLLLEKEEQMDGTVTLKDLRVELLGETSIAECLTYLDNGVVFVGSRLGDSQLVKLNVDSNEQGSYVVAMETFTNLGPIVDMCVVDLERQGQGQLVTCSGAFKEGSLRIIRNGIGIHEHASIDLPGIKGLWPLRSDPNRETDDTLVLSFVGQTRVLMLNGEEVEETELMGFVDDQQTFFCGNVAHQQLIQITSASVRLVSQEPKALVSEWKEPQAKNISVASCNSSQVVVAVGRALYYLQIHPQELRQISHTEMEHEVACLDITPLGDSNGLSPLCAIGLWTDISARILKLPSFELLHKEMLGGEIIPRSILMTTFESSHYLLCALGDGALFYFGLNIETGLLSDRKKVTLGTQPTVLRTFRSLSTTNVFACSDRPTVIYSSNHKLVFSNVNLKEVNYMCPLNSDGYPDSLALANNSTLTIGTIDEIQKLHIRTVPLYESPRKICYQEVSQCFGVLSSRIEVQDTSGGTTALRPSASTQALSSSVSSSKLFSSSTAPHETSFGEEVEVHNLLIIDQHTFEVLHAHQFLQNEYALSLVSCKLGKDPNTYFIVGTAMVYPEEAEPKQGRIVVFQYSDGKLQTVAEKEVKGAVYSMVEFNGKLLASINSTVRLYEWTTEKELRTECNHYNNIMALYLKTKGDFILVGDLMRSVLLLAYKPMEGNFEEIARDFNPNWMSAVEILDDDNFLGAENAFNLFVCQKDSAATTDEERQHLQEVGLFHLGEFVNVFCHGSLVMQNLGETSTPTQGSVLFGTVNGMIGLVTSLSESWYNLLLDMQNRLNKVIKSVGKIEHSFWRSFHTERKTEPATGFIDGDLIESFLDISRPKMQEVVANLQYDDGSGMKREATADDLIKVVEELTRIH
test-name: HiBiT degradation assay, CK1α, Procedure A
Format: cell-based
measurement-conditions: six hours
Listing: DC50 of selected compounds
property-measured: DC50

# compound, val
rows = [
    ("Cn1ncc(-c2ccc3c(c2)CN(C2CCC(=O)NC2=O)C3=O)c1C1=CCNCC1 (stereo not shown)", "≥ 25 nM"),
    ("CCOC(=O)Cc1cccc(-c2c(-c3ccc4c(c3)CN(C3CCC(=O)NC3=O)C4=O)cnn2C)c1 (stereo not shown)", "< 25 nM"),
    ("Cn1ncc(-c2ccc3c(c2)CN(C2CCC(=O)NC2=O)C3=O)c1-c1ccc(C(C)(F)F)cc1 (stereo not shown)", "< 25 nM"),
    ("Cn1ncc(-c2ccc3c(c2)CN(C2CCC(=O)NC2=O)C3=O)c1-c1cnn(Cc2ccccc2)c1 (stereo not shown)", "≥ 25 nM"),
    ("CC(C)c1nc(-c2ccc3c(c2)CN(C2CCC(=O)NC2=O)C3=O)cn1-c1ccccc1 (stereo not shown)", "< 25 nM"),
    ("CN1CCC(c2c(-c3ccc4c(c3)CN(C3CCC(=O)NC3=O)C4=O)cnn2C)CC1 (stereo not shown)", "≥ 25 nM"),
    ("Cn1ncc(-c2ccc3c(c2)CN(C2CCC(=O)NC2=O)C3=O)c1-c1cnc2c(ccn2C)c1 (stereo not shown)", "< 25 nM"),
    ("Cn1ncc(-c2ccc3c(c2)CN(C2CCC(=O)NC2=O)C3=O)c1-c1ccc2cncn2c1 (stereo not shown)", "≥ 25 nM"),
    ("Cn1cc(-c2ccc3c(c2)CN(C2CCC(=O)NC2=O)C3=O)nc1-c1ccc(Cl)c(C(F)(F)F)c1 (stereo not shown)", "< 25 nM"),
    ("O=C1CCC(N2Cc3cc(-n4ccc(-c5ccccc5)n4)ccc3C2=O)C(=O)N1 (stereo not shown)", "< 25 nM"),
    ("Cn1ncc(-c2ccc3c(c2)CN(C2CCC(=O)NC2=O)C3=O)c1-c1ccc2nccn2c1 (stereo not shown)", "≥ 25 nM"),
    ("Cn1ncc(-c2ccc3c(c2)CN(C2CCC(=O)NC2=O)C3=O)c1C1CCOC1 (stereo not shown)", "≥ 25 nM"),
    ("Cn1ncc(-c2ccc3c(c2)CN(C2CCC(=O)NC2=O)C3=O)c1C1CCCCC1 (stereo not shown)", "< 25 nM"),
    ("Cn1cc(-c2ccc3c(c2)CN(C2CCC(=O)NC2=O)C3=O)nc1-c1cc(F)cc(F)c1 (stereo not shown)", "< 25 nM"),
    ("Cn1ncc(-c2ccc3c(c2)CN(C2CCC(=O)NC2=O)C3=O)c1C1=CCC(c2ccccc2)CC1 (stereo not shown)", "< 25 nM"),
    ("Cc1cn(-c2ccccc2)c(-c2ccc3c(c2)CN(C2CCC(=O)NC2=O)C3=O)n1 (stereo not shown)", "< 25 nM"),
]

---

system-tested: CK1α (Homo sapiens, UniProt P48729+Q96SW2)
Construct: CSNK1A1-HiBit KI HEK293(LgBit) Cells; host or cells: HEK293(LgBit) knock-in cells
test-name: HiBiT degradation assay, CK1α, Procedure A
Assay type: cell-based
measurement-conditions: six hours incubation
property-measured: CK1α Ymin

# compound, property-measured, val
measured = [
    ("COc1ccc(-c2c(-c3ccc4c(c3)CN(C3CCC(=O)NC3=O)C4=O)ncn2C)cc1Cl (stereo not shown) [Example 276]", "CK1α Ymin", "C (C = 0-10% remaining)"),
    ("Cn1c(C2CC2)nc(-c2ccc3c(c2)CN(C2CCC(=O)NC2=O)C3=O)c1-c1cncnc1 (stereo not shown) [Example 117]", "CK1α Ymin", "C (C = 0-10% remaining)"),
    ("COc1ccc(-c2c(-c3ccc4c(c3)CN(C3CCC(=O)NC3=O)C4=O)cnn2C)cc1O (stereo not shown) [Example 222]", "CK1α Ymin", "C (C = 0-10% remaining)"),
]

---

system-tested: CK1α (Homo sapiens, UniProt P48729+Q96SW2)
Construct: CSNK1A1-HiBit KI HEK293(LgBit) Cells; host or cells: HEK293(LgBit) knock-in cells
test-name: HiBiT degradation assay, CK1α, Procedure A
Assay type: cell-based
measurement-conditions: six hours
Listing: DC50 of selected molecules
property-measured: DC50

# molecule, val
data = [
    ("Cn1cc(-c2ccc3c(c2)CN(C2CCC(=O)NC2=O)C3=O)nc1-c1ccoc1 (stereo not shown) [Example 559]", "< 25 nM"),
    ("Cn1cc(-c2ccc3c(c2)CN(C2CCC(=O)NC2=O)C3=O)nc1-c1ccccc1N (stereo not shown) [Example 634]", "< 25 nM"),
    ("CC(C)c1cn(-c2ccccc2)c(-c2ccc3c(c2)CN(C2CCC(=O)NC2=O)C3=O)n1 (stereo not shown) [Example 731]", "< 25 nM"),
    ("Cn1ccc(-c2c(-c3ccc4c(c3)CN(C3CCC(=O)NC3=O)C4=O)cnn2C)n1 (stereo not shown) [Example 470]", "≥ 25 nM"),
    ("COc1ccc(Cl)cc1-c1nc(-c2ccc3c(c2)CN(C2CCC(=O)NC2=O)C3=O)cn1C (stereo not shown) [Example 643]", "< 25 nM"),
    ("Cc1ccc(-c2nc(-c3ccc4c(c3)CN(C3CCC(=O)NC3=O)C4=O)cn2C)cc1C (stereo not shown) [Example 566]", "< 25 nM"),
    ("C[C@H]1CCCCN1c1nc(-c2ccc3c(c2)CN(C2CCC(=O)NC2=O)C3=O)nn1C (stereo partly shown) [Example 708]", "< 25 nM"),
    ("O=C1CCC(N2Cc3cc(-c4cc(-c5ccccc5)n(CC(F)(F)F)n4)ccc3C2=O)C(=O)N1 (stereo not shown) [Example 710]", "< 25 nM"),
    ("Cn1cc(-c2ccc3c(c2)CN(C2CCC(=O)NC2=O)C3=O)nc1-c1cccc(CO)c1 (stereo not shown) [Example 636]", "≥ 25 nM"),
    ("Cn1ncc(-c2ccc3c(c2)CN(C2CCC(=O)NC2=O)C3=O)c1-c1cnn(-c2ccccc2)c1 (stereo not shown) [Example 395]", "< 25 nM"),
    ("Cn1cc(-c2ccc3c(c2)CN(C2CCC(=O)NC2=O)C3=O)nc1-c1ccncc1 (stereo not shown) [Example 630]", "≥ 25 nM"),
    ("Cn1ncc(-c2ccc3c(c2)CN(C2CCC(=O)NC2=O)C3=O)c1-c1cccc(-n2cccn2)c1 (stereo not shown) [Example 479]", "< 25 nM"),
    ("Cc1cc(-c2c(-c3ccc4c(c3)CN(C3CCC(=O)NC3=O)C4=O)ncn2C)ccn1 (stereo not shown) [Example 398]", "< 25 nM"),
    ("Cn1c(C2CCOCC2)nc(-c2ccc3c(c2)CN(C2CCC(=O)NC2=O)C3=O)c1-c1cccnc1 (stereo not shown) [Example 420]", "< 25 nM"),
    ("Cn1cnc(-c2ccc3c(c2)CN(C2CCC(=O)NC2=O)C3=O)c1-c1ccc(F)cc1C(F)(F)F (stereo not shown) [Example 445]", "< 25 nM"),
    ("[2H]C([2H])([2H])n1ncc(-c2ccc3c(c2)CN(C2CCC(=O)NC2=O)C3=O)c1-c1ccc(OC(F)(F)F)cc1 (stereo not shown) [Example 435]", "< 25 nM"),
]

---

Listing: DC50 of selected compounds
system-tested: CK1α (Homo sapiens, UniProt P48729+Q96SW2)
Construct: CSNK1A1-HiBit KI HEK293(LgBit) Cells; host or cells: HEK293(LgBit) knock-in cells
test-name: HiBiT degradation assay, CK1α, Procedure A
Assay type: cell-based
measurement-conditions: six hours incubation

# compound, DC50
data = [
    ("COc1c(F)cccc1-c1c(-c2ccc3c(c2)CN(C2CCC(=O)NC2=O)C3=O)ncn1C (stereo not shown)", "< 25 nM"),
    ("Cc1sccc1-c1c(-c2ccc3c(c2)CN(C2CCC(=O)NC2=O)C3=O)cnn1C (stereo not shown)", "≥ 25 nM"),
    ("Cc1ccc(-c2c(-c3ccc4c(c3)CN(C3CCC(=O)NC3=O)C4=O)cnn2C)c(F)c1 (stereo not shown)", "< 25 nM"),
    ("Cn1ncc(-c2ccc3c(c2)CN(C2CCC(=O)NC2=O)C3=O)c1-c1cncc(N)c1 (stereo not shown)", "≥ 25 nM"),
]

---

Listing: DC50 of selected molecules
system-tested: GSPT1 (Homo sapiens, UniProt P15170+Q96SW2)
Sequence (P15170 whole entry): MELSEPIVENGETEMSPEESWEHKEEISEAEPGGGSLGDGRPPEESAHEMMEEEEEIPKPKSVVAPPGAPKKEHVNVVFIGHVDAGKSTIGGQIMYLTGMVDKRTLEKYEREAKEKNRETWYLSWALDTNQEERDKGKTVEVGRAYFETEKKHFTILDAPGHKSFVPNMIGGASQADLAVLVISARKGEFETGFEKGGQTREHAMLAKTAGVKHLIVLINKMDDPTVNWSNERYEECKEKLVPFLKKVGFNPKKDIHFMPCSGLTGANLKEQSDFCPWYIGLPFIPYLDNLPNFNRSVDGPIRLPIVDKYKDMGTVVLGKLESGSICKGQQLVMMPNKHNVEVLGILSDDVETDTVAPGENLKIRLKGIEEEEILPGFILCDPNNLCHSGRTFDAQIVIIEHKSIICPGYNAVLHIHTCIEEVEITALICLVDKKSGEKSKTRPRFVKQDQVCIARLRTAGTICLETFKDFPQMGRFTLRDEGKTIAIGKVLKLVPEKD
Sequence (Q96SW2 whole entry): as the sequence (Q96SW2 whole entry) above
Sequence (Q16531 whole entry partner): as the sequence (Q16531 whole entry partner) above
test-name: HiBiT degradation assay, GSPT1, Procedure B (Molt 4_hGSPT1_HiBIT cells)
Format: cell-based
Design: Molt 4_hGSPT1_HiBIT N-terminus tagged cells were generated using CRISPR technology; endogenous in cells; host or cells: Molt 4 cells, CRISPR-edited
measurement-conditions: six hours

# molecule, DC50
rows = [
    ("Cn1cc(-c2ccc3c(c2)CN(C2CCC(=O)NC2=O)C3=O)nc1-c1cccc2c1CCC2 (stereo not shown) [Example 689]", "≥ 25 nM"),
    ("Cn1nc(-c2ccc3c(c2)CN(C2CCC(=O)NC2=O)C3=O)nc1N1CCC(C(F)(F)F)CC1 (stereo not shown) [Example 707]", "≥ 25 nM"),
    ("Cn1cc(-c2ccc3c(c2)CN(C2CCC(=O)NC2=O)C3=O)nc1-c1cccc(CO)c1 (stereo not shown) [Example 636]", "≥ 25 nM"),
    ("Cn1ncc(-c2ccc3c(c2)CN(C2CCC(=O)NC2=O)C3=O)c1C1CCCC1 (stereo not shown) [Example 692]", "≥ 25 nM"),
    ("COc1ccc(C#N)cc1-c1nc(-c2ccc3c(c2)CN(C2CCC(=O)NC2=O)C3=O)cn1C (stereo not shown) [Example 684]", "< 25 nM"),
    ("Cc1cn(-c2ccccc2)c(-c2ccc3c(c2)CN(C2CCC(=O)NC2=O)C3=O)n1 (stereo not shown) [Example 729]", "< 25 nM"),
    ("Cn1cc(-c2ccc3c(c2)CN(C2CCC(=O)NC2=O)C3=O)nc1-c1ccc2c(c1)CCCO2 (stereo not shown) [Example 671]", "≥ 25 nM"),
    ("Cn1nc(-c2ccc3c(c2)CN(C2CCC(=O)NC2=O)C3=O)cc1-c1ccc(Cl)cc1 (stereo not shown) [Example 717]", "≥ 25 nM"),
    ("Cn1cc(-c2ccc3c(c2)CN(C2CCC(=O)NC2=O)C3=O)nc1-c1cccc(C(N)=O)c1 (stereo not shown) [Example 669]", "≥ 25 nM"),
    ("CC(C)c1nc(-c2ccc3c(c2)CN(C2CCC(=O)NC2=O)C3=O)c(-c2ccccc2)n1C (stereo not shown) [Example 726]", "≥ 25 nM"),
    ("Cn1cc(-c2ccc3c(c2)CN(C2CCC(=O)NC2=O)C3=O)nc1-c1ccc(Cl)cc1 (stereo not shown) [Example 629]", "≥ 25 nM"),
    ("Cn1cc(-c2ccc3c(c2)CN(C2CCC(=O)NC2=O)C3=O)nc1-c1cccc2ccccc12 (stereo not shown) [Example 676]", "≥ 25 nM"),
    ("Cn1c(C2CCC2)nc(-c2ccc3c(c2)CN(C2CCC(=O)NC2=O)C3=O)c1-c1ccccc1 (stereo not shown) [Example 727]", "≥ 25 nM"),
    ("Cn1cc(-c2ccc3c(c2)CN(C2CCC(=O)NC2=O)C3=O)nc1-c1ccc(F)cc1F (stereo not shown) [Example 653]", "≥ 25 nM"),
    ("Cn1cc(-c2ccc3c(c2)CN(C2CCC(=O)NC2=O)C3=O)nc1-c1ccc2ncccc2c1 (stereo not shown) [Example 660]", "< 25 nM"),
    ("Cc1ccc(Cl)cc1-c1nc(-c2ccc3c(c2)CN(C2CCC(=O)NC2=O)C3=O)cn1C (stereo not shown) [Example 640]", "≥ 25 nM"),
]
